Taken from patent US20070117743A1.

Tested on: SK-BR-3
Test: SRB colorimetric assay of cell growth and viability, SK-BR-3
Type: cell-based, human
Details: SK-BR-3; 48 hours exposure
Where a SMILES comes first, the peptide text is derived from it. Bridges are numbered along the chain shown (N, C = ends). [ ]: non-standard residue; d: D form. The star is where a group is joined. d(aIle) = CC[C@H](C)[C@@H](N)C(=O)O; d(aThr) = C[C@@H](O)[C@@H](N)C(=O)O; Hexanoyl(5-Me) = CC(C)CCCC(=O)*; Orn = NCCC[C@H](N)C(=O)O; Dhb = C/C=C(\N)C(=O)O
Answer each item with its documented GI50.

Quickly give me recorded GI50 for C/C=C1\NC(=O)[C@H](Cc2cccc(Cl)c2)NC(=O)[C@@H](C(C)C)NC(=O)[C@@H]([C@@H](C)CC)NC(=O)[C@H](NC(=O)[C@H](NC(=O)[C@H](CCCN)NC(=O)[C@H]2CCCN2C(=O)[C@H](NC(=O)[C@@H](NC(=O)[C@@H](NC(=O)[C@H](NC(=O)CCCC(C)C)C(C)C)[C@@H](C)O)C(C)C)C(C)C)[C@@H](C)CC)[C@@H](C)OC(=O)[C@H](C(C)C)NC1=O [Compound 82, [Phe(3-Cl)^3]-KF]
58.9 nM

Quickly give me recorded GI50 for C/C=C1\NC(=O)[C@H](Cc2ccccc2)NC(=O)[C@@H](C(C)C)NC(=O)[C@@H]([C@@H](C)CC)NC(=O)[C@H](NC(=O)[C@H](NC(=O)[C@H](CCCN)NC(=O)[C@H]2CCCN2C(=O)[C@H](NC(=O)[C@@H](NC(=O)CNC(=O)[C@H](NC(=O)CCCC(C)C)C(C)C)C(C)C)C(C)C)[C@@H](C)CC)[C@@H](C)OC(=O)[C@H](C(C)C)NC1=O [Compound 111, [Gly^12]-KF] ({Hexanoyl(5-Me)}-[dV]GV[dV][dP][Orn][d(aIle)][d(aThr)][d(aIle)][dV]F[Dhb]V; ester 8-C)
410 nM

Quickly give me recorded GI50 for C/C=C1\NC(=O)[C@H](Cc2ccccc2)NC(=O)[C@@H](C(C)C)NC(=O)[C@@H]([C@@H](C)CC)NC(=O)[C@H](NC(=O)[C@H](NC(=O)[C@H](CCCN)NC(=O)[C@H]2CCCN2C(=O)[C@H](NC(=O)[C@@H](NC(=O)[C@H](CCC(=O)O)NC(=O)[C@H](NC(=O)CCCC(C)C)C(C)C)C(C)C)C(C)C)[C@@H](C)CC)[C@@H](C)OC(=O)[C@H](C(C)C)NC1=O [Compound 115, [Glu^12]-KF] ({Hexanoyl(5-Me)}-[dV]EV[dV][dP][Orn][d(aIle)][d(aThr)][d(aIle)][dV]F[Dhb]V; ester 8-C)
1350 nM

Quickly give me recorded GI50 for C/C=C1\NC(=O)[C@H](Cc2ccccc2)NC(=O)[C@@H](C(C)C)NC(=O)[C@@H]([C@@H](C)CC)NC(=O)[C@H](NC(=O)[C@H](NC(=O)[C@H](CCCN)NC(=O)[C@H]2CCCN2C(=O)[C@H](NC(=O)[C@@H](NC(=O)[C@H](C)NC(=O)[C@H](NC(=O)CCCC(C)C)C(C)C)C(C)C)C(C)C)[C@@H](C)CC)[C@@H](C)OC(=O)[C@H](C(C)C)NC1=O [Compound 112, [Ala^12]-KF] ({Hexanoyl(5-Me)}-[dV]AV[dV][dP][Orn][d(aIle)][d(aThr)][d(aIle)][dV]F[Dhb]V; ester 8-C)
3970 nM
